Test: Human hepatocyte (HepG2) proliferation assay
Type: cell-based
Details: human, HepG2 cells, 72 h exposure, XTT
For each record, write down the corresponding EC50 at 72 h.

# count of solved cases: 3
compound | EC50 at 72 h
O=C(O)CN(CCN(CC(=O)O)CC(=O)O)CC(=O)O [EDTA] | > 29 µg/mL
CN(C)c1cc(-n2nc(-c3ccccc3)cc2O)ncn1 [ZAC307] | 13.2 µg/mL
c1ccc(CN(CCN(Cc2ccccn2)Cc2ccccn2)Cc2ccccn2)nc1 [TPEN] | 1.4 µg/mL

Input: For the compound Cc1cc(O)n(-c2cc(N3CC[C@H](Oc4cnccc4C#N)C3)ncn2)n1 [ZAC989] , give its reported EC50 at 72 h.
Output: 6.9 µg/mL
